# Tested on: KRAS PDC tumor spheroids (HUVEC+MSC), viability
# measurement description: Anticancer human tumor 254851-301-R-J1-PDC patient-derived colon carcinoma cell line growth inhibition [KRAS2]
# test conditions: second compound 0.316 µM; first compound 0.00316 µM; stronger effect = lower value
Hi! Could you tag entries with viability, T/C below 90% as class 1, and those at or above as class 0? Much appreciated.

INSERT INTO assay_data (compound, class) VALUES
  ('CC(=O)Nc1cccc(-n2c(=O)n(C3CC3)c(=O)c3c(Nc4ccc(I)cc4F)n(C)c(=O)c(C)c32)c1 + CC1OCC2(CCN(c3cnc(Sc4ccnc(N)c4Cl)c(N)n3)CC2)C1N', 'class 1'),
  ('CCN1CCN(Cc2ccc(Nc3ncc(F)c(-c4cc(F)c5nc(C)n(C(C)C)c5c4)n3)nc2)CC1 + C=CC(=O)N1CCN(c2nc(OCC3CCCN3C)nc3c2CCN(c2cccc4cccc(C)c24)C3)CC1CC#N', 'class 0'),
  ('CCN1CCN(Cc2ccc(Nc3ncc(F)c(-c4cc(F)c5nc(C)n(C(C)C)c5c4)n3)nc2)CC1 + C=CC(=O)N1CCN(c2nc(=O)n(-c3c(C)ccnc3C(C)C)c3nc(-c4c(O)cccc4F)c(F)cc23)C(C)C1', 'class 0'),
  ('Cn1ncnc1[C@H]1c2n[nH]c(=O)c3cc(F)cc(c23)N[C@@H]1c1ccc(F)cc1 + C=CC(=O)N1CCN(c2nc(=O)n(-c3c(C)ccnc3C(C)C)c3nc(-c4c(O)cccc4F)c(F)cc23)C(C)C1', 'class 0'),
  ('CC(=O)Nc1cccc(-n2c(=O)n(C3CC3)c(=O)c3c(Nc4ccc(I)cc4F)n(C)c(=O)c(C)c32)c1 + CNCc1ccccc1-c1csc(C(C)Nc2nc(C)nc3cc(OC)c(OC)cc23)c1', 'class 1'),
  ('Cn1ncnc1[C@H]1c2n[nH]c(=O)c3cc(F)cc(c23)N[C@@H]1c1ccc(F)cc1 + COc1cc2nc(C)nc(NC(C)c3cc(N)cc(C(F)(F)F)c3)c2cc1OC1CCOC1', 'class 0'),
  ('CC(C)n1nc(-c2ccc3oc(N)nc3c2)c2c(N)ncnc21 + COc1cc2nc(C)nc(NC(C)c3cc(N)cc(C(F)(F)F)c3)c2cc1OC1CCOC1', 'class 1'),
  ('CN(C)C/C=C/C(=O)Nc1cc2c(Nc3ccc(F)c(Cl)c3)ncnc2cc1O[C@H]1CCOC1 + CC1OCC2(CCN(c3cnc(Sc4ccnc(N)c4Cl)c(N)n3)CC2)C1N', 'class 1'),
  ('CC(=O)Nc1cccc(-n2c(=O)n(C3CC3)c(=O)c3c(Nc4ccc(I)cc4F)n(C)c(=O)c(C)c32)c1 + C=CC(=O)N1CCN(c2nc(=O)n(-c3c(C)ccnc3C(C)C)c3nc(-c4c(O)cccc4F)c(F)cc23)C(C)C1', 'class 1'),
  ('CCN1CCN(Cc2ccc(Nc3ncc(F)c(-c4cc(F)c5nc(C)n(C(C)C)c5c4)n3)nc2)CC1 + CNCc1ccccc1-c1csc(C(C)Nc2nc(C)nc3cc(OC)c(OC)cc23)c1', 'class 0');

----------
# System: KRAS PDC tumor spheroids (HUVEC+MSC), viability
# measurement description: Anticancer human tumor 254851-301-R-J1-PDC cell line growth inhibition [KRAS2];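 note: spheroids exposed to compounds for seven days before readout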
# test conditions: curve of first compound; second compound 0.316 µM
pIC50: −log10 of the molar value.
readout name: pIC50

INSERT INTO measurements (compound, target_under_test, qual, reading) VALUES
  ('CC(=O)OC12COC1CC(O)C1(C)C(=O)C(O)C3=C(C)C(OC(=O)C(O)C(NC(=O)OC(C)(C)C)c4ccccc4)CC(O)(C(OC(=O)c4ccccc4)C21)C3(C)C (stereo not given) + CC1OCC2(CCN(c3cnc(Sc4ccnc(N)c4Cl)c(N)n3)CC2)C1N', 'KRAS PDC tumor spheroids (HUVEC+MSC), viability', '=', 6.76),
  ('CC1OCC2(CCN(c3cnc(Sc4ccnc(N)c4Cl)c(N)n3)CC2)C1N (stereo not given) + CNCc1ccccc1-c1csc(C(C)Nc2nc(C)nc3cc(OC)c(OC)cc23)c1', 'KRAS PDC tumor spheroids (HUVEC+MSC), viability', '<', 5.00),
  ('CC1OCC2(CCN(c3cnc(Sc4ccnc(N)c4Cl)c(N)n3)CC2)C1N (stereo not given) + COc1cc2nc(C)nc(NC(C)c3cc(N)cc(C(F)(F)F)c3)c2cc1OC1CCOC1', 'KRAS PDC tumor spheroids (HUVEC+MSC), viability', '<', 5.00),
  ('CC(C)n1nc(-c2ccc3oc(N)nc3c2)c2c(N)ncnc21 + C=CC(=O)N1CCN(c2nc(OCC3CCCN3C)nc3c2CCN(c2cccc4cccc(C)c24)C3)CC1CC#N', 'KRAS PDC tumor spheroids (HUVEC+MSC), viability', '=', 7.82),
  ('CC(=O)Nc1cccc(-n2c(=O)n(C3CC3)c(=O)c3c(Nc4ccc(I)cc4F)n(C)c(=O)c(C)c32)c1 + CNCc1ccccc1-c1csc(C(C)Nc2nc(C)nc3cc(OC)c(OC)cc23)c1', 'KRAS PDC tumor spheroids (HUVEC+MSC), viability', '=', 8.29),
  ('CC1COCCN1c1cc(-c2ccnn2C)c2ccnc(-c3ccn[nH]3)c2n1 (stereo not given) + C=CC(=O)N1CCN(c2nc(OCC3CCCN3C)nc3c2CCN(c2cccc4cccc(C)c24)C3)CC1CC#N', 'KRAS PDC tumor spheroids (HUVEC+MSC), viability', '=', 6.73),
  ('CC(=O)OC12COC1CC(O)C1(C)C(=O)C(O)C3=C(C)C(OC(=O)C(O)C(NC(=O)OC(C)(C)C)c4ccccc4)CC(O)(C(OC(=O)c4ccccc4)C21)C3(C)C (stereo not given) + C=CC(=O)N1CCN(c2nc(OCC3CCCN3C)nc3c2CCN(c2cccc4cccc(C)c24)C3)CC1CC#N', 'KRAS PDC tumor spheroids (HUVEC+MSC), viability', '=', 6.79),
  ('CN(C)C/C=C/C(=O)Nc1cc2c(Nc3ccc(F)c(Cl)c3)ncnc2cc1O[C@H]1CCOC1 + C=CC(=O)N1CCN(c2nc(OCC3CCCN3C)nc3c2CCN(c2cccc4cccc(C)c24)C3)CC1CC#N', 'KRAS PDC tumor spheroids (HUVEC+MSC), viability', '<', 7.00),
  ('CC1(C)CCC(CN2CCN(c3ccc(C(=O)NS(=O)(=O)c4ccc(NCC5CCOCC5)c([N+](=O)[O-])c4)c(Oc4cnc5[nH]ccc5c4)c3)CC2)=C(c2ccc(Cl)cc2)C1 + CC1OCC2(CCN(c3cnc(Sc4ccnc(N)c4Cl)c(N)n3)CC2)C1N', 'KRAS PDC tumor spheroids (HUVEC+MSC), viability', '<', 5.00),
  ('CC(C)n1nc(-c2ccc3oc(N)nc3c2)c2c(N)ncnc21 + C=CC(=O)N1CCN(c2nc(=O)n(-c3c(C)ccnc3C(C)C)c3nc(-c4c(O)cccc4F)c(F)cc23)C(C)C1', 'KRAS PDC tumor spheroids (HUVEC+MSC), viability', '=', 7.67),
  ('CC(C)n1nc(-c2ccc3oc(N)nc3c2)c2c(N)ncnc21 + CNCc1ccccc1-c1csc(C(C)Nc2nc(C)nc3cc(OC)c(OC)cc23)c1', 'KRAS PDC tumor spheroids (HUVEC+MSC), viability', '=', 7.71),
  ('Cn1nccc1Nc1nccc(-c2cc3c(s2)C(C)(C)N(CCN2CCOCC2)C3=O)n1 + CC1OCC2(CCN(c3cnc(Sc4ccnc(N)c4Cl)c(N)n3)CC2)C1N', 'KRAS PDC tumor spheroids (HUVEC+MSC), viability', '=', 5.74),
  ('CC(=O)Nc1cccc(-n2c(=O)n(C3CC3)c(=O)c3c(Nc4ccc(I)cc4F)n(C)c(=O)c(C)c32)c1 + C=CC(=O)N1CCN(c2nc(=O)n(-c3c(C)ccnc3C(C)C)c3nc(-c4c(O)cccc4F)c(F)cc23)C(C)C1', 'KRAS PDC tumor spheroids (HUVEC+MSC), viability', '=', 8.29),
  ('CC(C)NCC(C(=O)N1CCN(c2ncnc3c2C(C)CC3O)CC1)c1ccc(Cl)cc1 (stereo not given) + COc1cc2nc(C)nc(NC(C)c3cc(N)cc(C(F)(F)F)c3)c2cc1OC1CCOC1', 'KRAS PDC tumor spheroids (HUVEC+MSC), viability', '<', 5.00),
  ('CCNC(=O)CC1N=C(c2ccc(Cl)cc2)c2cc(OC)ccc2-n2c(C)nnc21 (stereo not given) + CC1OCC2(CCN(c3cnc(Sc4ccnc(N)c4Cl)c(N)n3)CC2)C1N', 'KRAS PDC tumor spheroids (HUVEC+MSC), viability', '<', 5.00),
  ('CC(=O)OC12COC1CC(O)C1(C)C(=O)C(O)C3=C(C)C(OC(=O)C(O)C(NC(=O)OC(C)(C)C)c4ccccc4)CC(O)(C(OC(=O)c4ccccc4)C21)C3(C)C (stereo not given) + C=CC(=O)N1CCN(c2nc(=O)n(-c3c(C)ccnc3C(C)C)c3nc(-c4c(O)cccc4F)c(F)cc23)C(C)C1', 'KRAS PDC tumor spheroids (HUVEC+MSC), viability', '=', 6.61),
  ('CN(C)C/C=C/C(=O)Nc1cc2c(Nc3ccc(F)c(Cl)c3)ncnc2cc1O[C@H]1CCOC1 + COc1cc2nc(C)nc(NC(C)c3cc(N)cc(C(F)(F)F)c3)c2cc1OC1CCOC1', 'KRAS PDC tumor spheroids (HUVEC+MSC), viability', '<', 7.00),
  ('COC(=O)c1ccc2c(C(=Nc3ccc(N(C)C(=O)CN4CCN(C)CC4)cc3)c3ccccc3)c(O)[nH]c2c1 + C=CC(=O)N1CCN(c2nc(=O)n(-c3c(C)ccnc3C(C)C)c3nc(-c4c(O)cccc4F)c(F)cc23)C(C)C1', 'KRAS PDC tumor spheroids (HUVEC+MSC), viability', '<', 5.00),
  ('O=C(c1cc(Cc2n[nH]c(=O)c3ccccc23)ccc1F)N1CCN(C(=O)C2CC2)CC1 + C=CC(=O)N1CCN(c2nc(=O)n(-c3c(C)ccnc3C(C)C)c3nc(-c4c(O)cccc4F)c(F)cc23)C(C)C1', 'KRAS PDC tumor spheroids (HUVEC+MSC), viability', '<', 5.00),
  ('Cn1nccc1Nc1nccc(-c2cc3c(s2)C(C)(C)N(CCN2CCOCC2)C3=O)n1 + C=CC(=O)N1CCN(c2nc(OCC3CCCN3C)nc3c2CCN(c2cccc4cccc(C)c24)C3)CC1CC#N', 'KRAS PDC tumor spheroids (HUVEC+MSC), viability', '=', 5.60);
